These entries and their values trace back to ChEMBL document CHEMBL1122583.

# System: Nucleic Acid
# method_notes: In vitro DNA gyrase inhibition activity
# Type: nucleic-acid assay
Quick list: Ki (concentration giving 50% inhibition of gyrase supercoiling) per entry.
Answer format: numeric, µg/mL implied, no suffix.

Examples with answers:
mol: CC1(C)C=C(C(=O)O)C(=O)c2ccc3c(c21)OCC3
recorded_result: 300

mol: CC1(C)C=C(C(=O)O)C(=O)c2ccccc21
recorded_result: 2000

mol: CC1(C)C=C(C(=O)O)C(=O)c2cc3c(cc21)CCO3
recorded_result: 300

Form field Ki (concentration giving 50% inhibition of gyrase supercoiling), entry CC1(C)C=C(C(=O)O)C(=O)c2cc3c(cc21)OCO3 : 300
